Reference source: paper PMC4304192

- SYSTEM UNDER TEST: UniProt:O14965
- Sequence (O14965 1-403): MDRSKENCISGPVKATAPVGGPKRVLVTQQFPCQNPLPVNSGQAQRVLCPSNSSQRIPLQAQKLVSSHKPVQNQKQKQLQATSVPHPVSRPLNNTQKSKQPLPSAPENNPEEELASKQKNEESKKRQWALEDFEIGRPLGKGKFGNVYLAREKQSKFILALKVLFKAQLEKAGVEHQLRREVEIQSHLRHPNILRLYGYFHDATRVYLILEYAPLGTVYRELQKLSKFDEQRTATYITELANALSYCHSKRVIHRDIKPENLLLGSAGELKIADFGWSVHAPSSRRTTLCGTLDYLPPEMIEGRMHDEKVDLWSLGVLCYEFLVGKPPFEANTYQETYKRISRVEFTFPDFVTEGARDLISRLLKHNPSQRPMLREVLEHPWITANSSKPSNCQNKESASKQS
REPORTED METRIC: pIC50
Answers are plain numbers, as −log10 of the molar value.

Inquiry: Reported pIC50 for FC(F)(F)c1cccc(-c2csc(-n3ccnc3)n2)c1 [KUD773] : what is it?
Reply text: 4.52
